# Tested on: HepG2
# assay_protocol: Antiproliferative activity against human HepG2 cells overexpressed STAT3 assessed as reduction in cell growth incubated for 48 hrs by CCK-8 assay
# Type: functional, cell-based
# condition_label: HepG2, 48 h
property_name: IC50 (µM)

// solved cases for IC50 follow
smiles_representation	test_system	property_name	result
CCc1ccccc1NC1=CC(=O)c2cc(C(C)=O)oc2C1=O	HepG2	IC50	3.38
CC(=O)c1cc2c(o1)C(=O)C(NC1CC1)=CC2=O	HepG2	IC50	1.83
CC(=O)c1cc2c(o1)C(=O)C(Nc1ccccc1)=CC2=O	HepG2	IC50	1.54
CC(=O)c1cc2c(o1)C(=O)C(Nc1ccc(F)cc1)=CC2=O	HepG2	IC50	8.01
CC(=O)c1cc2c(o1)C(=O)C(Nc1cccc(C)c1)=CC2=O	HepG2	IC50	5.5
CC(=O)c1cc2c(o1)C(=O)C(Nc1c(C)cccc1C)=CC2=O	HepG2	IC50	8.03
COc1cc(C)c(NC2=CC(=O)c3cc(C(C)=O)oc3C2=O)c(C)c1	HepG2	IC50	2.01
CC(=O)c1cc2c(o1)C(=O)C(Nc1ccccc1C)=CC2=O	HepG2	IC50	1.21
CC(=O)c1cc2c(o1)C(=O)C(NC1CCCCC1)=CC2=O	HepG2	IC50	6.55
CC(=O)c1cc2c(o1)C(=O)C(Nc1ccc(C)c(C)c1)=CC2=O	HepG2	IC50	8.12

P: CC(=O)c1cc2c(o1)C(=O)C(Nc1ccc(C(F)(F)F)cc1)=CC2=O
Q: COc1ccccc1NC1=CC(=O)c2cc(C(C)=O)oc2C1=O
## Input Which value of IC50 is numerically greater: that of P or that of Q ? Please identify the chosen entry by its label.
## Output P

###

# Tested on: HepG2
# assay_protocol: Antiproliferative activity against human HepG2 cells overexpressed STAT3 assessed as reduction in cell growth incubated for 48 hrs by CCK-8 assay
# Format: functional, cell-based
# condition_label: HepG2, 48 h
property_name: IC50 (nM)

// solved cases for IC50 follow
compound	measurement_units	IC50
CC(=O)c1cc2c(o1)C(=O)c1ccccc1C2=O [NAPABUCASIN]	nM	840
CC(=O)c1cc2c(o1)C(=O)C(Nc1ccccc1F)=CC2=O	nM	2550
CC(=O)c1cc2c(o1)C(=O)C(Nc1cc(C)cc(F)c1)=CC2=O	nM	5660
CC(=O)c1cc2c(o1)C(=O)C(NC1CCCC1)=CC2=O	nM	7170

1: CC(=O)c1cc2c(o1)C(=O)C(NC1CCOCC1)=CC2=O
2: CC(=O)c1cc2c(o1)C(=O)C(Nc1ccc(C)cc1)=CC2=O
3: CC(=O)c1cc2c(o1)C(=O)C(Nc1ccc(OC(C)C)cc1)=CC2=O
## Input List from greatest to least IC50. Your reply should list the labels following the order given in the request.
## Output 1, 2, 3

A: CC(=O)c1cc2c(o1)C(=O)C(Nc1ccc(N(C)C)cc1)=CC2=O
B: CC(=O)c1cc2c(o1)C(=O)C(Nc1ccccc1C(F)(F)F)=CC2=O
## Input Pick one: A or B . Which one has the lower reported IC50? Please identify the chosen entry by its label.
## Output A

A: CC(=O)c1cc2c(o1)C(=O)C(Nc1cccc(C(F)(F)F)c1)=CC2=O
B: COc1ccc(NC2=CC(=O)c3cc(C(C)=O)oc3C2=O)cc1
## Input Which value of IC50 is numerically greater: that of A or that of B ? Please identify the chosen entry by its label.
## Output A
(A: 1990 nM, B: 1240 nM)

###

# Test system: HepG2
# assay_protocol: Antiproliferative activity against human HepG2 cells overexpressed STAT3 assessed as reduction in cell growth incubated for 48 hrs by CCK-8 assay
# Format: functional, cell-based
# condition_label: HepG2, 48 h
property_name: IC50 (µM)

// solved cases for IC50 follow
smiles_representation	measurement_units	IC50
COc1ccc(NC2=CC(=O)c3cc(C(C)=O)oc3C2=O)c(C)c1	µM	5.9
CC(=O)c1cc2c(o1)C(=O)C(NC1CCC1)=CC2=O	µM	6.75

a: CC(=O)c1cc2c(o1)C(=O)C(Nc1cccc(F)c1)=CC2=O
b: COc1cccc(NC2=CC(=O)c3cc(C(C)=O)oc3C2=O)c1
## Input Pick one: a or b . Which one has the lower reported IC50? Please identify the chosen entry by its label.
## Output b
